# Tested on: Escherichia coli
# experiment: Antimicrobial activity against wild-type Escherichia coli Eco523 by broth microdilution/CLSI method
# Format: functional
# condition-parameters: Escherichia coli, Eco523; read-out: MIC
The label Yes is reserved for MIC strictly under 30 µg/mL; No covers values equal to or above it.

INSERT INTO measurements (molecule, label_value) VALUES
  ('CO[C@H]1CN(c2nc(-c3nc(C)no3)c(C(=O)O)s2)CC[C@H]1NC(=O)c1[nH]c(C)c(Cl)c1Cl', 'No'),
  ('C=C1COC2(CN(c3ncc(C(=O)O)s3)CC[C@H]2NC(=O)c2[nH]c(C)c(Cl)c2Cl)OC1', 'No'),
  ('CO[C@H]1CN(c2nc(-c3cncc(NCCN4CCN(C)CC4)n3)c(C(=O)O)s2)CC[C@H]1NC(=O)c1[nH]c(C)c(Cl)c1Cl', 'No'),
  ('Cc1[nH]c(C(=O)N[C@@H]2CCN(c3ncc(C(=O)O)s3)C[C@@H]2N=[N+]=[N-])c(Cl)c1Cl (racemic)', 'No');

Please examine the following record next.
// query Quick check: does COC[C@H](C)NC(=O)c1nc(N2CC[C@@H](NC(=O)c3[nH]c(C)c(Cl)c3Cl)[C@@H](OC)C2)sc1C(=O)O have MIC under 30 µg/mL?
// result Yes

====

# experiment: Percentage unbound in human plasma
# Assay type: ADME, cell-free
The label criterion met is reserved for fraction unbound strictly under 0.02; criterion not met covers values equal to or above it.

The examples below pair each entry with its known result.
INSERT INTO results (compound, label_value) VALUES
  ('CO[C@H]1CN(c2nc(-c3cncc(OCCN(C)C)n3)c(C(=O)O)s2)CC[C@H]1NC(=O)c1[nH]c(C)c(Cl)c1Cl', 'criterion not met'),
  ('CO[C@H]1CN(c2nc(C(=O)O)c(C(N)=O)s2)CC[C@H]1NC(=O)c1[nH]c(C)c(Cl)c1Cl (racemic)', 'criterion met');

// query Quick check: does CO[C@H]1CN(c2nc(C)c(C(=O)O)s2)CC[C@H]1NC(=O)c1[nH]c(C)c(Cl)c1Cl have fraction unbound under 0.02?
// result criterion met

// query Also, CCO[C@H]1CN(c2ncc(C(=O)O)s2)CC[C@H]1NC(=O)c1[nH]c(C)c(Cl)c1Cl (racemic) please.
// result criterion not met

// query Also, CO[C@H]1CN(c2nc(-c3csc(N)n3)c(C(=O)O)s2)CC[C@H]1NC(=O)c1[nH]c(C)c(Cl)c1Cl please.
// result criterion met

// query Also, COCC(COC)NC(=O)c1nc(N2CC[C@@H](NC(=O)c3[nH]c(C)c(Cl)c3Cl)[C@@H](OC)C2)sc1C(=O)O please.
// result criterion not met

// query Also, CO[C@H]1CN(c2nc(C(C)=O)c(C(=O)O)s2)CC[C@H]1NC(=O)c1[nH]c(C)c(Cl)c1Cl please.
// result criterion met

// query Also, CO[C@H]1CN(c2nc(-c3nccs3)c(C(=O)O)s2)CC[C@H]1NC(=O)c1[nH]c(C)c(Cl)c1Cl please.
// result criterion met

====

Listing: IC50 of selected compounds
# system-tested: DNA gyrase subunit B (Staphylococcus aureus, UniProt P0A0K8)
# Sequence (P0A0K8 whole entry): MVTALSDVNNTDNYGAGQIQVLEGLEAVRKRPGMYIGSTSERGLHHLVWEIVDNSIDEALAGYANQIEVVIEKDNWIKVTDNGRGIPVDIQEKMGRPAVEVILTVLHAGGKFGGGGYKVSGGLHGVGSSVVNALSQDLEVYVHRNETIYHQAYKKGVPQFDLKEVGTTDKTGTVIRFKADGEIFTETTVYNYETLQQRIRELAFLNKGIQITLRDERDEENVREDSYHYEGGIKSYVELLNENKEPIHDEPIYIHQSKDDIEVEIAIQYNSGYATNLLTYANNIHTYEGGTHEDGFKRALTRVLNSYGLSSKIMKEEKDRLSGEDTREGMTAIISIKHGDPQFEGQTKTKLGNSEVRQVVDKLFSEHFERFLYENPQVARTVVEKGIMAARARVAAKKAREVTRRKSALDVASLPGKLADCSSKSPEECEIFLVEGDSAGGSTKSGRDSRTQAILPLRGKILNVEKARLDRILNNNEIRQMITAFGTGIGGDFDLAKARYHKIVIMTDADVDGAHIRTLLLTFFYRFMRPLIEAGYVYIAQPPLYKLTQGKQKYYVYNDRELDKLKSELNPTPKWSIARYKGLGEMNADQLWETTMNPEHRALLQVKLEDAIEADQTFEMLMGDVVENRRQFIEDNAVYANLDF
# experiment: Inhibition of ATPase activity of Staphylococcus aureus GyrB

INSERT INTO results (compound, observed_property, measured) VALUES
  ('Cc1[nH]c(C(=O)N[C@@H]2CCN(c3ncc(C(=O)O)s3)C[C@@H]2CO)c(Cl)c1Cl (racemic)', 'IC50', '18 nM'),
  ('COCn1ccnc1-c1nc(N2CC[C@@H](NC(=O)c3[nH]c(C)c(Cl)c3Cl)[C@@H](OC)C2)sc1C(=O)O', 'IC50', '< 10 nM'),
  ('CO[C@H]1CN(c2ncc(C(=O)O)s2)CC[C@@H]1NC(=O)c1[nH]c(C)c(Cl)c1Cl', 'IC50', '6400 nM');

// query Record CCO[C@H]1CN(c2ncc(C(=O)O)s2)CC[C@H]1NC(=O)c1[nH]c(C)c(Cl)c1Cl (racemic) : what is its IC50 with DNA gyrase subunit B (Staphylococcus aureus, UniProt P0A0K8)?
// result < 10 nM

// query Also, CO[C@H]1CN(c2nc(-c3cncc(NCCN4CCN(C)CC4)n3)c(C(=O)O)s2)CC[C@H]1NC(=O)c1[nH]c(C)c(Cl)c1Cl please.
// result 1.2 nM

// query Also, CO[C@H]1CN(c2nc(-c3ccncn3)c(C(=O)O)s2)CC[C@H]1NC(=O)c1[nH]c(C)c(Cl)c1Cl please.
// result < 10 nM

// query Also, CO[C@H]1CN(c2nc(-c3csc(N)n3)c(C(=O)O)s2)CC[C@H]1NC(=O)c1[nH]c(C)c(Cl)c1Cl please.
// result < 9.8 nM

// query Also, CNC(=O)c1sc(N2CC[C@@H](NC(=O)c3[nH]c(C)c(Cl)c3Cl)[C@@H](OC)C2)nc1C(=O)O please.
// result < 10 nM

// query Also, CO[C@H]1CN(c2nc(C(=O)N3CCOCC3)c(C(=O)O)s2)CC[C@H]1NC(=O)c1[nH]c(C)c(Cl)c1Cl (racemic) please.
// result < 10 nM
